molecular target: RAD51 (Homo sapiens); test: Gel-based D-loop assay; type: biochemical; conditions: Table 3; read-out: D-Loops IC50
measurement-type: IC50 (µM)
Express your answer in µM, writing the number without its unit.

Example cases with answers are listed next.
Oc1ccc(-c2nc3cc(O)ccc3n3cccc23)cc1 [Compound 12d]: 27.6
COc1ccc2c(c1)nc(-c1ccc(N)cc1)c1cccn12 [Compound 12c]: 13.2
Nc1ccc(-c2nc3cc(F)ccc3n3cccc23)cc1 [Compound 12i]: 25
Nc1ccc(-c2nc3cc(OCCF)ccc3n3cccc23)cc1 [Compound 15b]: 20
CN(C)c1ccc(-c2nc3cc(O)ccc3n3cccc23)cc1 [Compound 12g]: 9.8
COc1ccc2c(c1)nc(-c1cccnc1)c1cccn12 [Compound 13a]: 38.6
Nc1ccc(-c2nc3cc(F)c(F)cc3n3cccc23)cc1 [Compound 12l]: 34
Nc1ccc(-c2nc3cc(O)ccc3n3cccc23)cc1 [Compound 12f]: 8.4

Reported IC50 ( CCCOc1ccc2c(c1)nc(-c1ccc(N)cc1)c1cccn12 [Compound 15a] ) = 46.1

* * *

target: RAD51 (Homo sapiens, UniProt Q06609); assay: Fluorescence polarization-based DNA binding assay (RAD51-ssDNA binding); assay type: biochemical; details: Table 3; cells marked ↑: compound stimulates RAD51-ssDNA binding; read-out: ssDNA binding Max effect
Sequence (Q06609 whole entry): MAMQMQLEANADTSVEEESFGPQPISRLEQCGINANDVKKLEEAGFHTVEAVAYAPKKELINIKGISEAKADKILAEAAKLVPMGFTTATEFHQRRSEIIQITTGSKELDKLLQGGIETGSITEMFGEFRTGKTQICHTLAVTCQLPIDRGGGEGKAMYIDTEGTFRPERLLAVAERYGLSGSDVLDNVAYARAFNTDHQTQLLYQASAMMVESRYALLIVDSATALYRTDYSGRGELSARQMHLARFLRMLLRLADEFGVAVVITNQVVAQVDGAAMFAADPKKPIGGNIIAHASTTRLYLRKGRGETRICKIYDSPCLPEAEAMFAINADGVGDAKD
measurement-type: Emax (%)
Express your answer in %, writing the number without its unit.

Example cases with answers are listed next.
CN(C)c1ccc(-c2nc3cc(F)ccc3n3cccc23)cc1 [Compound 12j]: 57
COc1ccc2c(c1)nc(-c1ccc([N+](=O)[O-])cc1)c1cccn12 [Compound 12b]: 105
CN(C)c1ccc(-c2nc3cc(O)ccc3n3cccc23)cc1 [Compound 12g]: 34
Nc1ccc(-c2nc3cc(OCCF)ccc3n3cccc23)cc1 [Compound 15b]: 79
CN(C)c1ccc(-c2nc3cc(OC(C)(C)C(N)=O)ccc3n3cccc23)cc1: 131
CCCOc1ccc2c(c1)nc(-c1ccc(N)cc1)c1cccn12 [Compound 15a]: 117

From here, focus on the item given below.
Emax for RAD51 (Homo sapiens, UniProt Q06609) with input CN(C)c1ccc(-c2nc3cc(F)c(F)cc3n3cccc23)cc1 [Compound 12m] equals 65

* * *

molecular target: RAD51 (Homo sapiens, UniProt Q06609); experiment: Gel-based D-loop assay; format: biochemical; conditions: summary of Tables 2 and 3
measurement-type: D-loop inhibitory activity, in words

CN(C)c1ccc(-c2nc3cc(F)ccc3n3cccc23)cc1 [Compound 12j]: nearly absent
c1cncc(-c2nc3ccccc3n3cccc23)c1 [Compound 11a]: moderate
c1ccc2c(c1)nc(-c1ccncc1)c1cccn12 [Compound 11b]: moderate
C1=C(c2nc3ccccc3n3cccc23)CCCC1 [Compound 11c]: weak
c1ccc2c(-c3nc4ccccc4n4cccc34)cccc2c1 [Compound 11d]: weak

From here, focus on the item given below.
D-loop inhibitory activity, in words for RAD51 (Homo sapiens, UniProt Q06609) with input CN(C)c1ccc(-c2nc3cc(F)c(F)cc3n3cccc23)cc1 [Compound 12m] equals nearly absent

* * *

target: RAD51 (Homo sapiens, UniProt Q06609); assay: Fluorescence polarization-based DNA binding assay (RAD51-ssDNA binding); assay type: biochemical; conditions: Table 2; Stim = stimulator
measurement-type: ssDNA binding IC50

Example cases with answers are listed next.
CN(C)c1ccc(-c2nc3ccccc3n3cccc23)cc1: Stim
c1ccc2c(c1)nc(-c1ccc(N3CCCC3)cc1)c1cccn12: Stim
FC(F)(F)Oc1ccc(-c2nc3ccccc3n3cccc23)cc1: Stim
c1ccc2c(-c3nc4ccccc4n4cccc34)cccc2c1 [Compound 11d]: Stim

From here, focus on the item given below.
Reported ssDNA binding IC50 ( C1=C(c2nc3ccccc3n3cccc23)CCCC1 [Compound 11c] ) = Stim
